I'd appreciate it if you could supply pKi values for the items below.
- TESTED_ON: BCL2 G101V (Homo sapiens, UniProt P10415, G101V)
- ASSAY_EXPLANATION: TR-FRET competitive binding assay, BCL2 G101V
- STATED_CONDITIONS: BCL2 G101V; Ki determined from IC50; read-out: TR_FRET EKI_Bcl2 G101V
Here pKi is given on a logarithmic scale as minus log10 of the concentration in mol/L.

Recorded pKi (molecule `Cc1c(N(C(=O)c2cc(-c3cc4c(cc3C(=O)N3Cc5ccccc5C[C@H]3C)CN(C(=O)Cc3ccc(OCCN5CCN(CC(F)(F)F)CC5)cc3)CC4)n(C)c2C)c2ccc(O)cc2)cc(C#N)n1C` ): 8.77

Note to self: pKi recorded for `Cc1cc(OCCN2CCOCC2)c(F)cc1CC(=O)N1CCc2cc(-c3cc(C(=O)N(c4ccc(O)cc4)c4cc(C#N)n(C)c4C)c(C)n3C)c(C(=O)N3Cc4ccccc4C[C@H]3C)cc2C1` was 9.10

Measured pKi, `Cc1c(N(C(=O)c2cc(-c3cc4c(cc3C(=O)N3Cc5ccccc5C[C@H]3C)CN(C(=O)Cc3ccc(OCCN5CCSCC5)cc3)CC4)n(C)c2C)c2ccc(O)cc2)cc(C#N)n1C` : 9.70

// pKi value for `Cc1c(N(C(=O)c2cc(-c3cc4c(cc3C(=O)N3Cc5ccccc5C[C@H]3C)CN(C(=O)Cc3ccccc3)CC4)n(C)c2C)c2ccc(O)cc2F)cc(C#N)n1C` : 8.70

response.value for `Cc1c(N(C(=O)c2cc(-c3cc4c(cc3C(=O)N3Cc5ccccc5C[C@H]3CN3CCCCC3)CN(C(=O)Cc3ccc(OCCN5CCN(C)CC5)cc3)CC4)n(C)c2C)c2ccc(O)cc2)cc(C#N)n1C` (field: pKi) = 9.70

###

- ASSAY_EXPLANATION: Pharmacokinetics in SCID mice
- Type: in vivo
- STATED_CONDITIONS: mouse, blood, 25 mg/kg IV bolus, area under curve over 24 h, read-out: PK parameters AUC24
VALUE_KIND: AUC
Put your answer as a value accompanied by its unit after it.

For record `Cc1c(N(C(=O)c2cc(-c3cc4c(cc3C(=O)N3Cc5ccccc5C[C@H]3CN3CCCCC3)CN(C(=O)Cc3ccc(OCCN5CCOCC5)cc3F)CC4)n(C)c2C)c2ccc(O)cc2)cc(C#N)n1C` the listed AUC is 16.9 µM·h

Measured AUC, `Cc1c(N(C(=O)c2cc(-c3cc4c(cc3C(=O)N3Cc5ccccc5C[C@H]3C)CN(C(=O)Cc3ccc(OCCN5C[C@@H](C)O[C@@H](C)C5)cc3)CC4)n(C)c2C)c2ccc(O)cc2)cc(C#N)n1C` : 26.7 µM·h

// recorded AUC for `Cc1c(N(C(=O)c2cc(-c3cc4c(cc3C(=O)N3Cc5ccccc5C[C@H]3CN3CCOCC3)CN(C(=O)Cc3ccc(OCCC5CCOCC5)cc3F)CC4)n(C)c2C)c2ccc(O)cc2)cc(C#N)n1C` : 9.2 µM·h

###

Can you tell me TR_FRET EKI BCLxL/WT selectivty ratio for the items I'm about to list?
- TESTED_ON: BCLXL WT (Homo sapiens (Human))
- ASSAY_EXPLANATION: TR-FRET competitive binding assay, BCLXL WT
- STATED_CONDITIONS: ratio Ki BCLxL / Ki BCL2 WT
- Description: The relative binding potency of each compound was determined in a competitive binding assay using time resolved-fluorescence resonance energy transfer (TR-FRET). […] The degree of binding or corresponding compound inhibition can be quantified by the TR-FRET signal between the terbium donor and fluorescein acceptor. […] TR-FRET measurements were performed on a Biotek Synergy Neo plate reader. […] The TR-FRET signal was calculated as the emission-ratio at 520 nm over 495 nm. […]

Reported TR_FRET EKI BCLxL/WT selectivty ratio ( `Cc1c(N(C(=O)c2cc(-c3cc4c(cc3C(=O)N3Cc5ccccc5C[C@H]3C)CN(C(=O)Cc3ccc(OCCN5CC6(CCS6(=O)=O)C5)cc3)CC4)n(C)c2C)c2ccc(O)cc2)cc(C#N)n1C` ) = 13.0

Item: `Cc1c(N(C(=O)c2cc(-c3cc4c(cc3C(=O)N3Cc5ccccc5C[C@H]3C)CN(C(=O)Cc3ccc(OCCN5CCN6CCOC[C@@H]6C5)cc3)CC4)n(C)c2C)c2ccc(O)cc2)cc(C#N)n1C` | TR_FRET EKI BCLxL/WT selectivty ratio: 12.7

`Cc1c(C(=O)N(c2ccc(O)cc2)c2cnc3c(cnn3C)c2)cc(-c2cc3c(cc2C(=O)N2Cc4ccccc4C[C@H]2C)CN(C(=O)Cc2ccc(OCCN4CCOCC4)cc2)CC3)n1C` has a reported TR_FRET EKI BCLxL/WT selectivty ratio of 38.7

The recorded TR_FRET EKI BCLxL/WT selectivty ratio for entry `Cc1c(N(C(=O)c2cc(-c3cc4c(cc3C(=O)N3Cc5ccccc5C[C@H]3C)CN(C(=O)c3cnc(-c5ccccc5)s3)CC4)n(C)c2C)c2ccc(O)cc2)cc(C#N)n1C` equals 14.8

Looking up `Cc1c(C(=O)N(c2ccc(O)cc2)c2cc(C#N)n(C(F)F)c2C)cc(-c2cc3c(cc2C(=O)N2Cc4ccccc4C[C@H]2CN2CCCCC2)CN(C(=O)Cc2ccc(OCCN4C[C@@H](C)O[C@@H](C)C4)cc2)CC3)n1C` , I found its TR_FRET EKI BCLxL/WT selectivty ratio recorded as 96.0

# TR_FRET EKI BCLxL/WT selectivty ratio of `Cc1c(C(=O)N(c2ccc(O)cc2)c2cc(C#N)n(C3CC3)c2C)cc(-c2cc3c(cc2C(=O)N2Cc4ccccc4C[C@H]2C)CN(C(=O)Cc2ccc(OCCN4CCOCC4)cc2)CC3)n1C` = 10.7

Measured TR_FRET EKI BCLxL/WT selectivty ratio, `Cc1c(N(C(=O)c2cc(-c3cc4c(cc3C(=O)N3Cc5ccccc5C[C@H]3CN3CCCC[C@H]3C)CN(C(=O)Cc3ccc(OCCN5CCOCC5)cc3F)CC4)n(C)c2C)c2ccc(O)cc2)cc(C#N)n1C` : 35.1

Measured TR_FRET EKI BCLxL/WT selectivty ratio, `Cc1c(N(C(=O)c2cc(-c3cc4c(cc3C(=O)N3Cc5ccccc5C[C@H]3C)CN(C(=O)Cc3ccc(N5CCN6CCOC[C@@H]6C5)cc3F)CC4)n(C)c2C)c2ccc(O)cc2)cc(C#N)n1C` : 31.6

Value of TR_FRET EKI BCLxL/WT selectivty ratio reported for the compound `Cc1c(N(C(=O)c2cc(-c3cc4c(cc3C(=O)N3Cc5ccccc5C[C@H]3C)CN(C(=O)Cc3cc(F)c(OCCN5CCOCC5)cc3F)CC4)n(C)c2C)c2ccc(O)cc2)cc(C#N)n1C` is 17.2

The reported TR_FRET EKI BCLxL/WT selectivty ratio of the compound `Cc1c(N(C(=O)c2cc(-c3cc4c(cc3C(=O)N3Cc5ccccc5C[C@H]3CN3CCC[C@@H](C)C3)CN(C(=O)Cc3ccc(OCCN5CCOCC5)cc3F)CC4)n(C)c2C)c2ccc(O)cc2)cc(C#N)n1C` was 48.3

###

Kindly state TR_FRET EKI BCLxL/WT selectivty ratio for each of the entries shown.
- TESTED_ON: BCLXL WT (Homo sapiens (Human), UniProt Q07817)
- Sequence (Q07817 other isoform, or with tags, fused parts or gaps): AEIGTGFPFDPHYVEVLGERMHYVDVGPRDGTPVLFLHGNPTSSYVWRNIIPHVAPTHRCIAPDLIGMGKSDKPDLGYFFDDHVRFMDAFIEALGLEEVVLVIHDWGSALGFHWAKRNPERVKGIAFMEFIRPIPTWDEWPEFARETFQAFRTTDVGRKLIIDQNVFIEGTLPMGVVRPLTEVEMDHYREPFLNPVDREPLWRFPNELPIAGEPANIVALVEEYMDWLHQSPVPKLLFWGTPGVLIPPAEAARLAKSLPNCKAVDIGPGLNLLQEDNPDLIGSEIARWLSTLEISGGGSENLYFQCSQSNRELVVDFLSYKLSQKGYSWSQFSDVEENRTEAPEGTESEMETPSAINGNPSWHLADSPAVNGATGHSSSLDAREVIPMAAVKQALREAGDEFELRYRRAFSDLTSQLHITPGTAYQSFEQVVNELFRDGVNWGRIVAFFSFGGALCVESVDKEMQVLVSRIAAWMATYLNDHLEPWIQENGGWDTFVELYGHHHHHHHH
- ASSAY_EXPLANATION: TR-FRET competitive binding assay, BCLXL WT
- STATED_CONDITIONS: ratio Ki BCLxL / Ki BCL2 WT
// keep it numeric: no unit symbol after the value

Lookup result for `Cc1c(N(C(=O)c2cc(-c3cc4c(cc3C(=O)N3Cc5ccccc5C[C@H]3CN3CCCCC3)CN(C(=O)Cc3ccc(OCCN5CCOCC5)cc3Cl)CC4)n(C)c2C)c2ccc(O)cc2)cc(C#N)n1C` ; measured TR_FRET EKI BCLxL/WT selectivty ratio: 61.7

The recorded TR_FRET EKI BCLxL/WT selectivty ratio for `Cc1c(N(C(=O)c2cc(-c3cc4c(cc3C(=O)N3Cc5ccccc5C[C@H]3CN3CCCCC3)CN(C(=O)Cc3ccc(OC(C)(C)CN5CCOCC5)cc3)CC4)n(C)c2C)c2ccc(O)cc2)cc(C#N)n1C` is 85.7

The compound listed as `Cc1c(N(C(=O)c2cc(-c3cc4c(cc3C(=O)N3Cc5ccccc5C[C@H]3C)CN(C(=O)Cc3ccc(OCCN5C[C@@H](C)O[C@@H](C)C5)cc3)CC4)n(C)c2C)c2ccc(O)cc2)cc(C#N)n1C` has a reported TR_FRET EKI BCLxL/WT selectivty ratio of 11.5

Noted for `COc1ccc(N(C(=O)c2cc(-c3cc4c(cc3C(=O)N3Cc5ccccc5C[C@H]3C)CN(C(=O)Cc3ccc(OCCN5CCOCC5)cc3)CC4)n(C)c2C)c2ccccc2)cc1C#N` : its TR_FRET EKI BCLxL/WT selectivty ratio reads 107.1

Form field TR_FRET EKI BCLxL/WT selectivty ratio, entry `Cc1c(N(C(=O)c2cc(-c3cc4c(cc3C(=O)N3Cc5ccccc5C[C@H]3CN3CCCC3)CN(C(=O)Cc3ccc(OCCN(C)C5CC5)cc3F)CC4)n(C)c2C)c2ccc(O)cc2)cc(C#N)n1C` : 105.6
